- System: EKVX NSCLC
- assay.method.text: NCI-60 one-dose screen, 48 h (100 = growth as untreated, 0 = no growth, -100 = all killed)
- reported.conditions: 10 µM
This is part of a sample that, as a whole, favours compounds with a hit. Of some 83,000 tested, about 20% had one in any assay.
metric: growth (%)
Express your answer in %, writing the number without its unit.

See these solved cases before continuing.
> print(dat)
                                compound  reading.unit  reported.result
1             Nc1ccc(N)c([N+](=O)[O-])c1             %              110
2    CN(C)c1nc2c([nH]1)c(=O)n(C)c(=O)n2C             %              104
3          CN(C)c1ccc2oc(=O)c3ccccc3c2c1             %             50.4
4  Cc1ccc(C(=O)N/N=C/c2ccc3c(c2)OCO3)cc1             %              101

Summary: `O=[N+]([O-])c1cccc(N=Nc2ccc(O)cc2O)c1` , EKVX NSCLC, growth = 69.9

# CCCC1(c2ccccc2)NC(=O)NC1=O (stereo not drawn) with EKVX NSCLC: growth is 118

Readout growth for `C=CCc1cc(C(C)=O)cc(OC)c1O` , test system EKVX NSCLC, was 100

I looked up `O=[N+]([O-])c1ccc(S(=O)(=O)NN=C2CCCCC2)cc1` and its growth for EKVX NSCLC was 104

Noted growth for `CN(C)Cc1cc(C(C)(C)CC(C)(C)C)ccc1O` , tested on EKVX NSCLC: 98.4

With EKVX NSCLC as the test system, `Cc1cc2nc(CC(=O)c3ccccc3)c(=O)[nH]c2cc1C` showed growth of 55.5

Record CC1Cc2ccccc2O1 (stereo not drawn) / EKVX NSCLC, growth recorded as 122
